- system_under_test: Adenosine receptor A1 (Homo sapiens)
- protocol: Displacement of [3H]DPCPX from human A1 adenosine receptor expressed in CHO cells at 1 uM after 120 mins by scintillation counting analysis
- Type: cell-based
# inhibition annotations
Quick note: give the figure in %, leave out the unit.

Sample answers from the record:
Cc1nc(NC(=O)c2cccnc2)c2nn(-c3ccccc3)cc2n1 :: 12
Cc1nc(NC(=O)c2ccccc2)c2nn(-c3ccccc3)cc2n1 :: 30
COc1ccc(C(=O)Nc2nc(C)nc3cn(-c4ccccc4)nc23)cc1 :: 4
O=C(c1ccco1)N(C(=O)c1ccco1)c1nc(-c2ccccc2)nc2cn(-c3ccccc3)nc12 :: 3

Consider the additional compound presented here.
Given item COc1ccc(-n2cc3nc(C)nc(NC(C)=O)c3n2)cc1 , the value recorded as its inhibition is 30
